These measurements were taken from ChEMBL document CHEMBL1208762.

# Measurement target: Mitogen-activated protein kinase 14 (Homo sapiens, UniProt Q16539)
# Sequence (Q16539 whole entry): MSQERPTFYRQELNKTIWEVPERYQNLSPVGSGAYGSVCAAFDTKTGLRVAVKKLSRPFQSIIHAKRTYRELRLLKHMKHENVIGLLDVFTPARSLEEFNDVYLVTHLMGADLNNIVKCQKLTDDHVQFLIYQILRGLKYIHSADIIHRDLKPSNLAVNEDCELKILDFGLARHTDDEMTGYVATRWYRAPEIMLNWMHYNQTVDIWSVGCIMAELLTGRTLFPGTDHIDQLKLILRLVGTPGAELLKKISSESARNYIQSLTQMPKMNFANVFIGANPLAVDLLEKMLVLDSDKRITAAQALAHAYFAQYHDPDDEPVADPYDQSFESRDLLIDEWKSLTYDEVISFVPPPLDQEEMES
# Measurement protocol: Inhibition of unactive p38alpha
Measure name: IC50 (µM)

Supply recorded IC50 for `CC(C)(C)c1cc(NC(=O)Nc2ccccc2)n(-c2cccc(CNC(=O)CNC(=O)c3cccnc3)c2)n1` here.
0.051

Supply recorded IC50 for `CC(C)(C)c1cc(NC(=O)Nc2ccccc2)n(-c2cccc(CNC(=O)CN3CCOC3=O)c2)n1` here.
0.185

Supply recorded IC50 for CC(C)(C)c1cc(NC(=O)Nc2ccccc2)n(-c2cccc(CNC(=O)C3CCCC[C@H]3C(=O)O)c2)n1 (stereo partly drawn) here.
0.057

Supply recorded IC50 for `CC(C)(C)c1cc(NC(=O)Nc2ccccc2)n(-c2cccc(CNC(=O)Cn3ccccc3=O)c2)n1` here.
0.016

Supply recorded IC50 for `CC(C)(C)c1cc(NC(=O)Nc2ccccc2)n(-c2cccc(CNC(=O)CNS(C)(=O)=O)c2)n1` here.
0.108

[P] Cc1cc(C)n(CC(=O)NCc2cccc(-n3nc(C(C)(C)C)cc3NC(=O)Nc3ccccc3)c2)n1
[Q] Cc1nccn1CC(=O)NCc1cccc(-n2nc(C(C)(C)C)cc2NC(=O)Nc2ccccc2)c1
[R] Cc1cc(C(=O)NCC(=O)NCc2cccc(-n3nc(C(C)(C)C)cc3NC(=O)Nc3ccccc3)c2)no1
hey, can you rank those molecules up there by IC50? biggest number first please In your reply, arrange the labels in the requested order.
Q, P, R
(Q: 0.132 µM, P: 0.0782 µM, R: 0.038 µM)
